Please provide measured protein stability index for the entries that follow.
System: Saccharomyces cerevisiae;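 also: PSI is a weighted mean of sequencing reads over stability bins, variants kept only with over 10 reads, mCherry proximal and sfGFP distal, peptide attached via GGGS linker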
Assay: protein stability index of tFT-peptide fusion (C-terminal peptide) (PSI (0-1 scale)); higher = more stable (slower turnover)
Conditions: genetic background: wild type; temperature: 30 C
Quick one: just the number, no unit, thanks!

Query (sequence): `IHQVGCFHIPFG` ; field requested: protein stability index
0.666

Query (sequence): `FLSEPAKRILYL` ; field requested: protein stability index
0.667

Query (sequence): `LPPQRPSQYLLH` ; field requested: protein stability index
0.786

Query (sequence): `PWWGCTLGGGWG` ; field requested: protein stability index
0.737

Query (sequence): `VGEQEVVGIGGV` ; field requested: protein stability index
0.695

Query (sequence): `RKKQKKQKKKKG` ; field requested: protein stability index
0.682

Query (sequence): `GVCSWLVFGGWA` ; field requested: protein stability index
0.684

Query (sequence): `GDSVNSRALALS` ; field requested: protein stability index
0.732

Query (sequence): `ITGLRNSRFNRP` ; field requested: protein stability index
0.652

Query (sequence): `MFWKFVFRGFWF` ; field requested: protein stability index
0.338

Query (sequence): `PPPSPPLPPFSL` ; field requested: protein stability index
0.706

Query (sequence): `PAPPPVLDTPLP` ; field requested: protein stability index
0.602

Query (sequence): `TSARQGFFASLV` ; field requested: protein stability index
0.646

Query (sequence): `RQPRPPDDIASV` ; field requested: protein stability index
0.678

Query (sequence): `LLRPLSPIDVLR` ; field requested: protein stability index
0.702

Query (sequence): `QFNVLPGQVGLV` ; field requested: protein stability index
0.635

Query (sequence): `PRTDIGGAGLGE` ; field requested: protein stability index
0.696

Query (sequence): `CLFWWDASTILP` ; field requested: protein stability index
0.68

Query (sequence): `AEVLCEIVIALR` ; field requested: protein stability index
0.523
